# System: MOLT-4
# PROTOCOL SUMMARY: NCI tumour cell line growth inhibition, 48 h
Active and inactive are the calls of the source. No stated cut-off is given here; in the data, active = GI50 up to about 1.1 µM and inactive = higher.
Output constraint: value belongs to true (1) for active, false (0) for inactive

CCCCCCCCCCCCCCCC/C(C(=O)OC)=C(/O)C(=O)OCC; false (0)
CCOC(=O)c1cc(-c2ccc(OC)cc2)c([N+](=O)[O-])n1C; false (0)
O=P12N(CCN1c1ccccc1)CCN2c1ccccc1; false (0)
CCNC(=S)NNC(=O)c1csc(NC(=S)NC2CCCCC2)n1; false (0)
COc1cc2c(c(O)c1C)C(=O)C(Cl)=CC2=O; false (0)

Lab log entry: O=C(c1ccccc1)c1ccc(-n2c3ccccc3c3ccc4c(c32)C(=O)C=CC4=O)cc1 — outcome as called in the assay?
false (0)

Please give the result for COC(=O)CCN(CCC(=O)OC)C1CC1 too.
false (0)

Please give the result for Cc1cc2occ(-c3ccc(Cl)cc3)c2c(=O)o1 too.
false (0)

Please give the result for CCN(CCCl)CCCNc1c2ccccc2nc2ccc(OC)cc12 too.
true (1)

Please give the result for Oc1c(C(O)c2ccccn2)ccc2ccccc12 (stereo unspecified) too.
false (0)

Please give the result for CCCN(CCC)c1c([N+](=O)[O-])cc(S(N)(=O)=O)cc1[N+](=O)[O-] [ORYZALIN] too.
false (0)
